- measuredTarget: HLA-B*5101 (human)
- procedureDetails: competition with 125I probe peptide, purified HLA
assayEndpoint: IC50
Form field: result (number plus unit)

Below, each entry is followed by its recorded IC50 result.
FPDLSYMPI (analog peptide) [Her2/neu.605.F1]: 10 nM
FPCARVCYGL (analog peptide) [Her2/neu.336.F1]: 1000 nM

Provide each entry's IC50 from the list below.
1. FPGGLRELQI (analog peptide) [Her2/neu.133.F1I10]
2. MPNPEGRYTI (analog peptide) [Her2/neu.282.I10]

1: 1770 nM; 2: 13 nM

Every entry's value here was drawn from patent US20040018971A1.
